Tested on: TNF
Test: Modulation of TNF production in Colon 38 tumour-bearing mice (serum and tumour, ELISA)
Assay type: in vivo
Settings: 100 mg/kg co-administered with DMXAA 25 mg/kg; 3 h; FIG. 3A
Protocol: Mice with Colon 38 tumours, approximately 5-7 mm in diameter, were divided into groups of 5. One group was untreated. […] TNF was assayed using a commercially available ELISA kit (OpEIA human or murine TNF kit, PharMingen, San Diego, Calif., USA), according to the manufacturer's instructions. […] The absorbance at 450 nm was determined using a microtitre plate reader.
ASSAY METRIC: effect on DMXAA-induced serum TNF level

NC(=O)CCC(C(=O)O)N1C(=O)c2ccccc2C1=O (stereo not shown) = had no effect
NC(=O)C(CCC(=O)O)N1C(=O)c2ccccc2C1=O (stereo not shown) = had no effect
